Below, each of the binders is paired with its reported X = 290 value.
Target: recombinant human-Dectin-1 mouse Fc fusion (human) (UniProt Q9BXN2)
Test: Octet BLI, response at X

# binder, X = 290
data = [
    ("2M24A.1.18 (Fab, V domains shown) VH: QVQLVQSGAEVKKPGASVKVSCKSSGYTFTDYYIHWVRQAPGQGLEWMGWINPNSGDTNYAQKFQGRITMTRDTSISTAYLELSRLRSDDTAVFYCARNSGAYSFGYWGQGTLVTVSS VL: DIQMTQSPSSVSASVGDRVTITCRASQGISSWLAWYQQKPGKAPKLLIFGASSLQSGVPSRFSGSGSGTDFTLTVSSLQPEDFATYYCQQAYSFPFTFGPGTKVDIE", 0.138),
    ("2M24A.1.22 (Fab, V domains shown) VH: QVQLVQSGAEVKKPGASVKVSCKSSGYTFTDYYIHWVRQAPGQGLEWMGWINPNSGDTNYAQKFQGRITMTRDTSISTAYLELSRLRSDDTAVFYCARNSGSYSFGAWGQGTLVTVSS VL: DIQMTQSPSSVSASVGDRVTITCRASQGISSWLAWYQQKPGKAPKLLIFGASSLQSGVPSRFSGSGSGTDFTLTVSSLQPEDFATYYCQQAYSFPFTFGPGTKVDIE", 0.131),
    ("2M24A.1.19 (Fab, V domains shown) VH: QVQLVQSGAEVKKPGASVKVSCKSSGYTFTDYYIHWVRQAPGQGLEWMGWINPNSGDTNYAQKFQGRITMTRDTSISTAYLELSRLRSDDTAVFYCARNSGSYAFGYWGQGTLVTVSS VL: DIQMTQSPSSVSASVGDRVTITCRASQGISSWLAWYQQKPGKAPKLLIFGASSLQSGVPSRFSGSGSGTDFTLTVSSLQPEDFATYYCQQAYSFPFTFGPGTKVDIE", 0.126),
    ("2M24A.1.15 (Fab, V domains shown) VH: QVQLVQSGAEVKKPGASVKVSCKSSGYTFTDYYIHWVRQAPGQGLEWMGWINPNSGDTNYAQKFQGRITMTRDTSISTAYLELSRLRSDDTAVFYCAANSGSYSFGYWGQGTLVTVSS VL: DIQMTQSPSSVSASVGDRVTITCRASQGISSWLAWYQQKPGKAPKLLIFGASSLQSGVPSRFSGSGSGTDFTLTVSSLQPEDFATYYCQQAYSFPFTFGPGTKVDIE", 0.082),
    ("2M24A.1.16 (Fab, V domains shown) VH: QVQLVQSGAEVKKPGASVKVSCKSSGYTFTDYYIHWVRQAPGQGLEWMGWINPNSGDTNYAQKFQGRITMTRDTSISTAYLELSRLRSDDTAVFYCARNAGSYSFGYWGQGTLVTVSS VL: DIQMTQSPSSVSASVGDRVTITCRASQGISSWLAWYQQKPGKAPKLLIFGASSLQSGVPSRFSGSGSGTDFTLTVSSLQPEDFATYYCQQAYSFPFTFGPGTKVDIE", 0.12),
]
